These entries and their values trace back to the supplement of paper PMC12669032.

# System: Coprococcus comes
# assay: growth AUC relative to DMSO control (median of replicates) (fraction); higher = more growth (less inhibition), active = hit call of the paper
# condition info: 20 µM; 24 h
measurement kind: growth AUC
Just the number, please.

Qu. Query growth AUC for CCOP(=S)(OCC)SCS(=O)C(C)(C)C (configuration not stated)
Ans. 1.05

Qu. Return growth AUC (reported value) for this compound: "CS(=O)(=O)c1ccc(C(=O)C2C(=O)CCCC2=O)c(Cl)c1"
Ans. 0.974

Qu. Output measured growth AUC for this item: "CN(C)C1CSSSC1.O=C(O)C(=O)O"
Ans. 0.99

Qu. Indicate the recorded growth AUC value for this compound: "Cc1cccc(C)c1N"
Ans. 1.02

Qu. Indicate the recorded growth AUC value for this compound: "Cc1cc(OC(=O)N(C)C)nn1C(=O)N(C)C"
Ans. 1.03

Qu. Tell me growth AUC reported for C=C/C=C/CC1=C(C)C(OC(=O)[C@@H]2C(/C=C(\C)C(=O)OC)C2(C)C)CC1=O.C=C/C=C/CC1=C(C)[C@@H](OC(=O)[C@@H]2C(C=C(C)C)C2(C)C)CC1=O (some centres not stated)
Ans. 0.953

Qu. // fetch growth AUC given entry "CNC(=O)/C(=N/OC)c1ccccc1Oc1ccccc1"
Ans. 0.989

Qu. Read off the recorded growth AUC for "O=C(O)C(Cl)Cl"
Ans. 0.959

Qu. Return growth AUC (reported value) for this compound: "CCN(CC)C(=O)SCc1ccc(Cl)cc1"
Ans. 0.966

Qu. Specify growth AUC for CCC(C)c1cc([N+](=O)[O-])cc([N+](=O)[O-])c1OC(=O)C=C(C)C (configuration not stated) and stop.
Ans. 0.945

Qu. Supply measured growth AUC of CCC(C)c1ccccc1OC(=O)NC (configuration not stated) in your reply.
Ans. 1.01

Qu. Please give the documented growth AUC of "Cc1cc(C)nc(Nc2ccccc2)n1"
Ans. 0.986

Qu. Consider the compound "COc1cc(OC)nc(NC(=O)NS(=O)(=O)c2ncccc2C(=O)N(C)C)n1" . State its measured growth AUC.
Ans. 0.966

Qu. Supply recorded growth AUC for "CCSCc1ccccc1OC(=O)NC" here.
Ans. 0.959

Qu. Input "N#Cc1nn(-c2c(Cl)cc(C(F)(F)F)cc2Cl)c(N)c1C(F)(F)F" , output reported growth AUC.
Ans. 0.885

Qu. For the compound CC(C)C1(C)N=C(c2ncccc2C(=O)O)NC1=O (configuration not stated) , report growth AUC.
Ans. 1.02

Qu. Dear colleague, please send me the reported growth AUC for "CCOP(=S)(OCC)SCn1nnc2ccccc2c1=O" when you can.
Ans. 1.01
